Please respond with reported MIC for every item in the list.
# Tested on: Escherichia coli
# Procedure summary: Antibacterial activity against Escherichia coli ATCC 25922 isolate 107
# Format: functional
// return numeric value only (unit: µg/mL, not printed)

IN: If you can, please state the reported MIC value of CN(C)[C@@H]1C(O)=C(C(N)=O)C(=O)[C@@]2(O)C(O)=C3C(=O)c4c(O)c(NS(C)(=O)=O)cc(F)c4C[C@H]3C[C@@H]12 .
OUT: 0.25

IN: If you can, please state the reported MIC value of CCCNc1cc(F)c2c(c1O)C(=O)C1=C(O)[C@]3(O)C(=O)C(C(N)=O)=C(O)[C@@H](N(C)C)[C@@H]3C[C@@H]1C2 .
OUT: 32

---

# Test system: Streptococcus pneumoniae
# Procedure summary: Antibacterial activity against tetracycline-resistant Streptococcus pneumoniae isolate 160 expressing tetM gene
# Assay type: functional
Readout kind: MIC (µg/mL)
// return numeric value only (unit: µg/mL, not printed)

IN: Find MIC (Streptococcus pneumoniae) for the entry CN(C)[C@@H]1C(O)=C(C(N)=O)C(=O)[C@@]2(O)C(O)=C3C(=O)c4c(O)c(NC(=O)[C@H]5CCCN5C)cc(F)c4C[C@H]3C[C@@H]12
OUT: 0.25

IN: Find MIC (Streptococcus pneumoniae) for the entry CN(C)[C@@H]1C(O)=C(C(N)=O)C(=O)[C@@]2(O)C(O)=C3C(=O)c4c(O)c(NCC(C)(C)C)cc(F)c4C[C@H]3C[C@@H]12
OUT: 16

IN: Find MIC (Streptococcus pneumoniae) for the entry CN(C)[C@@H]1C(O)=C(C(N)=O)C(=O)[C@@]2(O)C(O)=C3C(=O)c4c(O)c(NC(=O)[C@@H]5CCN5C)cc(F)c4C[C@H]3C[C@@H]12
OUT: 0.016

IN: Find MIC (Streptococcus pneumoniae) for the entry CN(C)c1cc(F)c2c(c1O)C(=O)C1=C(O)[C@]3(O)C(=O)C(C(N)=O)=C(O)[C@@H](N(C)C)[C@@H]3C[C@@H]1C2
OUT: 4

IN: Find MIC (Streptococcus pneumoniae) for the entry CCCNc1cc(F)c2c(c1O)C(=O)C1=C(O)[C@]3(O)C(=O)C(C(N)=O)=C(O)[C@@H](N(C)C)[C@@H]3C[C@@H]1C2
OUT: 4

IN: Find MIC (Streptococcus pneumoniae) for the entry CN(C)[C@@H]1C(O)=C(C(N)=O)C(=O)[C@@]2(O)C(O)=C3C(=O)c4c(O)c(NC(=O)c5cccs5)cc(F)c4C[C@H]3C[C@@H]12
OUT: 16

IN: Find MIC (Streptococcus pneumoniae) for the entry CNC(=O)Nc1cc(F)c2c(c1O)C(=O)C1=C(O)[C@]3(O)C(=O)C(C(N)=O)=C(O)[C@@H](N(C)C)[C@@H]3C[C@@H]1C2
OUT: 0.5

IN: Find MIC (Streptococcus pneumoniae) for the entry CN(C)[C@@H]1C(O)=C(C(N)=O)C(=O)[C@@]2(O)C(O)=C3C(=O)c4c(O)c(Nc5ccncn5)cc(F)c4C[C@H]3C[C@@H]12
OUT: 0.5

IN: Find MIC (Streptococcus pneumoniae) for the entry CN(C)[C@@H]1C(O)=C(C(N)=O)C(=O)[C@@]2(O)C(O)=C3C(=O)c4c(O)c(CNC(=O)CNC(C)(C)C)cc(F)c4C[C@H]3C[C@@H]12
OUT: 4

IN: Find MIC (Streptococcus pneumoniae) for the entry CN(C)[C@@H]1C(O)=C(C(N)=O)C(=O)[C@@]2(O)C(O)=C3C(=O)c4c(O)c(N)cc(F)c4C[C@H]3C[C@@H]12
OUT: 4

---

# System: Staphylococcus aureus
# Procedure summary: Antibacterial activity against tetracycline-resistant Staphylococcus aureus isolate SA158 expressing TetK gene
# Format: functional
Readout kind: MIC (µg/mL)
// return numeric value only (unit: µg/mL, not printed)

IN: If you can, please state the reported MIC value of COc1cccc(C(=O)Nc2cc(F)c3c(c2O)C(=O)C2=C(O)[C@]4(O)C(=O)C(C(N)=O)=C(O)[C@@H](N(C)C)[C@@H]4C[C@@H]2C3)c1 .
OUT: 0.13

IN: If you can, please state the reported MIC value of CN(C)[C@@H]1C(O)=C(C(N)=O)C(=O)[C@@]2(O)C(O)=C3C(=O)c4c(O)c(NC(=O)[C@@H]5C[C@H](F)CN5C)cc(F)c4C[C@H]3C[C@@H]12 .
OUT: 0.063

IN: If you can, please state the reported MIC value of CN(C)c1cc(NC(=O)CNC(C)(C)C)c(O)c2c1C[C@H]1C[C@H]3[C@H](N(C)C)C(O)=C(C(N)=O)C(=O)[C@@]3(O)C(O)=C1C2=O .
OUT: 0.063

IN: If you can, please state the reported MIC value of CN(C)[C@@H]1C(O)=C(C(N)=O)C(=O)[C@@]2(O)C(O)=C3C(=O)c4c(O)c(NC(=O)CN5CCCC5)cc(F)c4C[C@H]3C[C@@H]12 .
OUT: 0.016

IN: If you can, please state the reported MIC value of CN(C)[C@@H]1C(O)=C(C(N)=O)C(=O)[C@@]2(O)C(O)=C3C(=O)c4c(O)c(NC(=O)c5ccn(C)n5)cc(F)c4C[C@H]3C[C@@H]12 .
OUT: 1

IN: If you can, please state the reported MIC value of CCCNc1cc(F)c2c(c1O)C(=O)C1=C(O)[C@]3(O)C(=O)C(C(N)=O)=C(O)[C@@H](N(C)C)[C@@H]3C[C@@H]1C2 .
OUT: 0.5

IN: If you can, please state the reported MIC value of CN(C)[C@@H]1C(O)=C(C(N)=O)C(=O)[C@@]2(O)C(O)=C3C(=O)c4c(O)c(NC(=O)[C@@H]5CC(F)(F)CN5C)cc(F)c4C[C@H]3C[C@@H]12 .
OUT: 1

IN: If you can, please state the reported MIC value of CN(C)[C@@H]1C(O)=C(C(N)=O)C(=O)[C@@]2(O)C(O)=C3C(=O)c4c(O)c(NC(=O)[C@@H]5CCCCN5)cc(F)c4C[C@H]3C[C@@H]12 .
OUT: 0.25

IN: If you can, please state the reported MIC value of CCN1CCC[C@H]1C(=O)Nc1cc(F)c2c(c1O)C(=O)C1=C(O)[C@]3(O)C(=O)C(C(N)=O)=C(O)[C@@H](N(C)C)[C@@H]3C[C@@H]1C2 .
OUT: 0.031

IN: If you can, please state the reported MIC value of CN(C)[C@@H]1C(O)=C(C(N)=O)C(=O)[C@@]2(O)C(O)=C3C(=O)c4c(O)c(NC(=O)c5ccccc5)cc(F)c4C[C@H]3C[C@@H]12 .
OUT: 0.5

IN: If you can, please state the reported MIC value of CN(C)[C@@H]1C(O)=C(C(N)=O)C(=O)[C@@]2(O)C(O)=C3C(=O)c4c(O)c(NC(=O)[C@@H]5CCCN5)cc(F)c4C[C@H]3C[C@@H]12 .
OUT: 0.5

IN: If you can, please state the reported MIC value of CN(C)[C@@H]1C(O)=C(C(N)=O)C(=O)[C@@]2(O)C(O)=C3C(=O)c4c(O)c(NC(=O)[C@H]5CCCN5C)cc(F)c4C[C@H]3C[C@@H]12 .
OUT: 2

IN: If you can, please state the reported MIC value of CN(C)c1ccccc1C(=O)Nc1cc(F)c2c(c1O)C(=O)C1=C(O)[C@]3(O)C(=O)C(C(N)=O)=C(O)[C@@H](N(C)C)[C@@H]3C[C@@H]1C2 .
OUT: 0.063

IN: If you can, please state the reported MIC value of CN(C)[C@@H]1C(O)=C(C(N)=O)C(=O)[C@@]2(O)C(O)=C3C(=O)c4c(O)c(NC(=O)[C@H]5CCCCN5)cc(F)c4C[C@H]3C[C@@H]12 .
OUT: 2

IN: If you can, please state the reported MIC value of CN(C)[C@@H]1C(O)=C(C(N)=O)C(=O)[C@@]2(O)C(O)=C3C(=O)c4c(O)c(NC(=O)c5cccs5)cc(F)c4C[C@H]3C[C@@H]12 .
OUT: 0.5

IN: If you can, please state the reported MIC value of CC(C)N1CCC[C@H]1C(=O)Nc1cc(F)c2c(c1O)C(=O)C1=C(O)[C@]3(O)C(=O)C(C(N)=O)=C(O)[C@@H](N(C)C)[C@@H]3C[C@@H]1C2 .
OUT: 0.25

IN: If you can, please state the reported MIC value of CN(C)[C@@H]1C(O)=C(C(N)=O)C(=O)[C@@]2(O)C(O)=C3C(=O)c4c(O)c(CNC(=O)CNC(C)(C)C)cc(F)c4C[C@H]3C[C@@H]12 .
OUT: 16

IN: If you can, please state the reported MIC value of CN(C)[C@@H]1C(O)=C(C(N)=O)C(=O)[C@@]2(O)C(O)=C3C(=O)c4c(O)c(NC(=O)[C@@H]5CCCN5C)cc(F)c4C[C@H]3C[C@@H]12 .
OUT: 0.13

IN: If you can, please state the reported MIC value of CN(C)c1cc(CNCC(C)(C)C)c(O)c2c1C[C@H]1C[C@H]3[C@H](N(C)C)C(O)=C(C(N)=O)C(=O)[C@@]3(O)C(O)=C1C2=O .
OUT: 0.25

IN: If you can, please state the reported MIC value of CN(C)[C@@H]1C(O)=C(C(N)=O)C(=O)[C@@]2(O)C(O)=C3C(=O)c4c(O)c(NS(=O)(=O)c5ccccc5)cc(F)c4C[C@H]3C[C@@H]12 .
OUT: 0.5

IN: If you can, please state the reported MIC value of CN(C)[C@@H]1C(O)=C(C(N)=O)C(=O)[C@@]2(O)C(O)=C3C(=O)c4c(O)c(NCCNC(C)(C)C)cc(F)c4C[C@H]3C[C@@H]12 .
OUT: 1

IN: If you can, please state the reported MIC value of CN(C)[C@@H]1C(O)=C(C(N)=O)C(=O)[C@@]2(O)C(O)=C3C(=O)c4c(O)c(NC(=O)[C@H]5CCCN5)cc(F)c4C[C@H]3C[C@@H]12 .
OUT: 4

IN: If you can, please state the reported MIC value of CN(C)[C@@H]1C(O)=C(C(N)=O)C(=O)[C@@]2(O)C(O)=C3C(=O)c4c(O)c(NC(=O)[C@@H]5CCN5)cc(F)c4C[C@H]3C[C@@H]12 .
OUT: 0.5
